system: Escherichia coli TOP10; experiment: shrunken log2 fold change of peptide-encoding DNA abundance (4.5 h post-induction vs induction); higher = less antimicrobial activity (less host growth inhibition); details: time post-induction: 4.5 h; library: site-saturation at positions 5, 18, 19, 20
Classify as follows. Reported shrunken log2 fold change greater than or equal to -0.1: y. Reported shrunken log2 fold change below: n.

Please indicate if the recorded shrunken log2 fold change for "RRIRRRPPRLPRPRPRPYSCPRP" meets or exceeds -0.1.
y

Please indicate if the recorded shrunken log2 fold change for "RRIRMRPPRLPRPRPRPRLRPRP" meets or exceeds -0.1.
y

Please indicate if the recorded shrunken log2 fold change for "RRIRERPPRLPRPRPRPRQAPRP" meets or exceeds -0.1.
y

Please indicate if the recorded shrunken log2 fold change for "RRIRKRPPRLPRPRPRPCFKPRP" meets or exceeds -0.1.
y

Please indicate if the recorded shrunken log2 fold change for "RRIRWRPPRLPRPRPRPVRPPRP" meets or exceeds -0.1.
y

Please indicate if the recorded shrunken log2 fold change for "RRIRARPPRLPRPRPRPEEGPRP" meets or exceeds -0.1.
y

Please indicate if the recorded shrunken log2 fold change for "RRIRMRPPRLPRPRPRPCNIPRP" meets or exceeds -0.1.
y

Please indicate if the recorded shrunken log2 fold change for "RRIRHRPPRLPRPRPRPSIMPRP" meets or exceeds -0.1.
n

Please indicate if the recorded shrunken log2 fold change for "RRIRSRPPRLPRPRPRPCYRPRP" meets or exceeds -0.1.
y

Please indicate if the recorded shrunken log2 fold change for "RRIRTRPPRLPRPRPRPNDTPRP" meets or exceeds -0.1.
n

Please indicate if the recorded shrunken log2 fold change for "RRIRYRPPRLPRPRPRPCLNPRP" meets or exceeds -0.1.
n

----------
test system: Escherichia coli TOP10; test: shrunken log2 fold change of peptide-encoding DNA abundance (4.5 h post-induction vs induction); higher = less antimicrobial activity (less host growth inhibition); settings: time post-induction: 4.5 h; library: site-saturation at positions 5, 18, 19, 20
ASSAY_ENDPOINT: shrunken log2 fold change

What value of shrunken log2 fold change on Escherichia coli TOP10 does "RRIRTRPPRLPRPRPRPSVEPRP" have?
0.0926

What value of shrunken log2 fold change on Escherichia coli TOP10 does "RRIRRRPPRLPRPRPRPFQVPRP" have?
-0.0462

What value of shrunken log2 fold change on Escherichia coli TOP10 does "RRIRRRPPRLPRPRPRPPVTPRP" have?
0.538

What value of shrunken log2 fold change on Escherichia coli TOP10 does "RRIRIRPPRLPRPRPRPLNSPRP" have?
-0.652

What value of shrunken log2 fold change on Escherichia coli TOP10 does "RRIRKRPPRLPRPRPRPDPLPRP" have?
0.282

What value of shrunken log2 fold change on Escherichia coli TOP10 does "RRIRARPPRLPRPRPRPWQHPRP" have?
0.0196

----------
Record form. Attribute: shrunken log2 fold change. Fill in for each entry.
test system: Escherichia coli TOP10; assay: shrunken log2 fold change of peptide-encoding DNA abundance (4.5 h post-induction vs induction); higher = less antimicrobial activity (less host growth inhibition); details: time post-induction: 4.5 h; library: site-saturation at positions 5, 18, 19, 20
// print number alone

What value of shrunken log2 fold change on Escherichia coli TOP10 does "RRIRCRPPRLPRPRPRPNGNPRP" have?
-0.288

What value of shrunken log2 fold change on Escherichia coli TOP10 does "RRIRNRPPRLPRPRPRPHFKPRP" have?
-0.52

What value of shrunken log2 fold change on Escherichia coli TOP10 does "RRIRTRPPRLPRPRPRPVYFPRP" have?
-0.558

What value of shrunken log2 fold change on Escherichia coli TOP10 does "RRIRYRPPRLPRPRPRPWQSPRP" have?
-0.121

----------
tested on: Escherichia coli TOP10; assay: shrunken log2 fold change of peptide-encoding DNA abundance (4.5 h post-induction vs induction); higher = less antimicrobial activity (less host growth inhibition); conditions: time post-induction: 4.5 h; library: site-saturation at positions 5, 18, 19, 20
Classify as follows. Reported shrunken log2 fold change greater than or equal to 0.02: TRUE. Reported shrunken log2 fold change below: FALSE.

Please indicate if the recorded shrunken log2 fold change for "RRIRMRPPRLPRPRPRPGSYPRP" meets or exceeds 0.02.
TRUE

Please indicate if the recorded shrunken log2 fold change for "RRIRWRPPRLPRPRPRPKMCPRP" meets or exceeds 0.02.
FALSE

Please indicate if the recorded shrunken log2 fold change for "RRIRTRPPRLPRPRPRPLWSPRP" meets or exceeds 0.02.
TRUE

Please indicate if the recorded shrunken log2 fold change for "RRIRNRPPRLPRPRPRPKIAPRP" meets or exceeds 0.02.
TRUE

Please indicate if the recorded shrunken log2 fold change for "RRIRSRPPRLPRPRPRPRSHPRP" meets or exceeds 0.02.
FALSE

Please indicate if the recorded shrunken log2 fold change for "RRIRWRPPRLPRPRPRPCRHPRP" meets or exceeds 0.02.
TRUE

Please indicate if the recorded shrunken log2 fold change for "RRIRARPPRLPRPRPRPMNAPRP" meets or exceeds 0.02.
TRUE

Please indicate if the recorded shrunken log2 fold change for "RRIRERPPRLPRPRPRPVTMPRP" meets or exceeds 0.02.
FALSE

Please indicate if the recorded shrunken log2 fold change for "RRIRLRPPRLPRPRPRPTDFPRP" meets or exceeds 0.02.
FALSE

Please indicate if the recorded shrunken log2 fold change for "RRIRLRPPRLPRPRPRPPTIPRP" meets or exceeds 0.02.
TRUE

Please indicate if the recorded shrunken log2 fold change for "RRIRARPPRLPRPRPRPTYHPRP" meets or exceeds 0.02.
FALSE

Please indicate if the recorded shrunken log2 fold change for "RRIRARPPRLPRPRPRPPTLPRP" meets or exceeds 0.02.
TRUE

Please indicate if the recorded shrunken log2 fold change for "RRIRTRPPRLPRPRPRPWFKPRP" meets or exceeds 0.02.
FALSE

Please indicate if the recorded shrunken log2 fold change for "RRIRWRPPRLPRPRPRPYTNPRP" meets or exceeds 0.02.
FALSE

Please indicate if the recorded shrunken log2 fold change for "RRIRGRPPRLPRPRPRPIWEPRP" meets or exceeds 0.02.
FALSE

Please indicate if the recorded shrunken log2 fold change for "RRIRDRPPRLPRPRPRPRFYPRP" meets or exceeds 0.02.
TRUE

Please indicate if the recorded shrunken log2 fold change for "RRIRRRPPRLPRPRPRPCIKPRP" meets or exceeds 0.02.
FALSE

----------
Record form. Attribute: shrunken log2 fold change. Fill in for each entry.
test system: Escherichia coli TOP10; assay: shrunken log2 fold change of peptide-encoding DNA abundance (4.5 h post-induction vs induction); higher = less antimicrobial activity (less host growth inhibition); details: time post-induction: 4.5 h; library: site-saturation at positions 5, 18, 19, 20

// shrunken log2 fold change lookup, key: "RRIRTRPPRLPRPRPRPVIRPRP"
-0.176

// shrunken log2 fold change lookup, key: "RRIRCRPPRLPRPRPRPPWWPRP"
2.01

// shrunken log2 fold change lookup, key: "RRIRCRPPRLPRPRPRPLVRPRP"
0.0749

// shrunken log2 fold change lookup, key: "RRIRQRPPRLPRPRPRPNEMPRP"
0.105

// shrunken log2 fold change lookup, key: "RRIRIRPPRLPRPRPRPGADPRP"
-0.193

// shrunken log2 fold change lookup, key: "RRIRSRPPRLPRPRPRPCITPRP"
-0.185

// shrunken log2 fold change lookup, key: "RRIRKRPPRLPRPRPRPKDTPRP"
0.26

// shrunken log2 fold change lookup, key: "RRIRFRPPRLPRPRPRPVKNPRP"
-0.0401

// shrunken log2 fold change lookup, key: "RRIRQRPPRLPRPRPRPAMQPRP"
0.109

// shrunken log2 fold change lookup, key: "RRIRERPPRLPRPRPRPWFPPRP"
-0.206

// shrunken log2 fold change lookup, key: "RRIRWRPPRLPRPRPRPETNPRP"
0.187

----------
tested on: Escherichia coli TOP10; assay: shrunken log2 fold change of peptide-encoding DNA abundance (4.5 h post-induction vs induction); higher = less antimicrobial activity (less host growth inhibition); conditions: time post-induction: 4.5 h; library: site-saturation at positions 5, 18, 19, 20;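 note: peptides expressed intracellularly from a pBAD plasmid library in pooled LB shake-flask culture, induced with 0.3% L-arabinose, DNA abundance read by NGS, three biological replicates, DESeq2 with apeglm shrinkage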
Note that class boundaries on shrunken log2 fold change are lower range: < -0.2; middle range: ≥ -0.2 and < 0.03; upper range: ≥ 0.03

In plain terms, what class is "RRIRLRPPRLPRPRPRPVKTPRP" ?
middle range

In plain terms, what class is "RRIRWRPPRLPRPRPRPSDDPRP" ?
upper range

In plain terms, what class is "RRIRYRPPRLPRPRPRPNFTPRP" ?
lower range

In plain terms, what class is "RRIRRRPPRLPRPRPRPSSRPRP" ?
middle range

In plain terms, what class is "RRIRTRPPRLPRPRPRPAYMPRP" ?
lower range

In plain terms, what class is "RRIRDRPPRLPRPRPRPNKIPRP" ?
lower range

In plain terms, what class is "RRIRTRPPRLPRPRPRPVVGPRP" ?
upper range

In plain terms, what class is "RRIRWRPPRLPRPRPRPIKIPRP" ?
middle range

In plain terms, what class is "RRIRQRPPRLPRPRPRPYEQPRP" ?
lower range

In plain terms, what class is "RRIRGRPPRLPRPRPRPMMRPRP" ?
upper range

In plain terms, what class is "RRIRTRPPRLPRPRPRPRCTPRP" ?
middle range

In plain terms, what class is "RRIRNRPPRLPRPRPRPWDEPRP" ?
middle range

In plain terms, what class is "RRIRWRPPRLPRPRPRPCRLPRP" ?
upper range

In plain terms, what class is "RRIRLRPPRLPRPRPRPKWWPRP" ?
upper range

In plain terms, what class is "RRIRKRPPRLPRPRPRPPGDPRP" ?
upper range

In plain terms, what class is "RRIRSRPPRLPRPRPRPFWKPRP" ?
middle range

In plain terms, what class is "RRIRYRPPRLPRPRPRPECGPRP" ?
middle range

In plain terms, what class is "RRIRSRPPRLPRPRPRPNTIPRP" ?
lower range

In plain terms, what class is "RRIRSRPPRLPRPRPRPLPFPRP" ?
lower range

In plain terms, what class is "RRIRHRPPRLPRPRPRPVFYPRP" ?
lower range

In plain terms, what class is "RRIRIRPPRLPRPRPRPNAFPRP" ?
middle range

In plain terms, what class is "RRIRSRPPRLPRPRPRPEDFPRP" ?
middle range

In plain terms, what class is "RRIRKRPPRLPRPRPRPWIMPRP" ?
middle range

In plain terms, what class is "RRIRFRPPRLPRPRPRPKISPRP" ?
lower range

In plain terms, what class is "RRIRHRPPRLPRPRPRPHTQPRP" ?
upper range

In plain terms, what class is "RRIRARPPRLPRPRPRPGYRPRP" ?
middle range

In plain terms, what class is "RRIRWRPPRLPRPRPRPHGFPRP" ?
upper range

In plain terms, what class is "RRIRERPPRLPRPRPRPNNTPRP" ?
lower range

In plain terms, what class is "RRIRDRPPRLPRPRPRPELDPRP" ?
upper range

In plain terms, what class is "RRIRERPPRLPRPRPRPSWNPRP" ?
lower range

In plain terms, what class is "RRIRMRPPRLPRPRPRPSDAPRP" ?
upper range

In plain terms, what class is "RRIRTRPPRLPRPRPRPRLYPRP" ?
middle range

In plain terms, what class is "RRIRQRPPRLPRPRPRPTQRPRP" ?
upper range

In plain terms, what class is "RRIRRRPPRLPRPRPRPECWPRP" ?
upper range

In plain terms, what class is "RRIRPRPPRLPRPRPRPSDHPRP" ?
lower range

In plain terms, what class is "RRIRSRPPRLPRPRPRPQEKPRP" ?
lower range

In plain terms, what class is "RRIRNRPPRLPRPRPRPKGVPRP" ?
upper range

In plain terms, what class is "RRIRHRPPRLPRPRPRPCYCPRP" ?
lower range

In plain terms, what class is "RRIRDRPPRLPRPRPRPRVMPRP" ?
upper range

In plain terms, what class is "RRIRYRPPRLPRPRPRPHLFPRP" ?
lower range
